system: L1210 leukemia ip in BDF1 mice, survival T/C; assay: NCI In Vivo Anticancer Drug Screen. Data for tumor model L1210 Leukemia (intraperitoneal) in B6D2F1 (BDF1) mice; conditions: endpoint: mean survival time; dose: 100.0 mg/kg/injection; schedule: Q04DX003 (ip); vehicle: Klucel (hydroxypropylcellulose) (HPC); higher = longer survival
Toxic doses and inconclusive results are not listed.
Some molecules, each annotated with its measured T/C.

molecule: O=[N+]([O-])c1cc2c3ccccc3c(F)cc2c2ccccc12
T/C: 96 % of control

molecule: Clc1ccc(N=Cc2ccccc2)cc1
T/C: 95 % of control

molecule: CC(C)(C)S(=O)(=O)c1nc2ccccc2s1
T/C: 93 % of control

Record `CCOc1ccc(NC(=O)Nc2ccccc2OC)cc1` ; system L1210 leukemia ip in BDF1 mice, survival T/C; T/C = 94 % of control

Record CCCCCCCCCCCCC(O)C(=O)O (stereo not drawn) ; system L1210 leukemia ip in BDF1 mice, survival T/C; T/C = 95 % of control

Record `CC(=O)COc1ccccc1` ; system L1210 leukemia ip in BDF1 mice, survival T/C; T/C = 100 % of control

Record Nc1ccccc1SC1CC(=O)N(c2cccc3ccccc23)C1=O (stereo not drawn) ; system L1210 leukemia ip in BDF1 mice, survival T/C; T/C = 89 % of control

Record `Nc1c(Cl)ncnc1Nc1cccc(C(F)(F)F)c1` ; system L1210 leukemia ip in BDF1 mice, survival T/C; T/C = 92 % of control

Record `Cc1cccc(C)c1NC(=O)Oc1c(C)cccc1C` ; system L1210 leukemia ip in BDF1 mice, survival T/C; T/C = 102 % of control

Record `O=CNC(c1ccccc1)(c1ccccc1)c1ccccc1` ; system L1210 leukemia ip in BDF1 mice, survival T/C; T/C = 102 % of control

Record `COc1ccc(C=O)cc1Br` ; system L1210 leukemia ip in BDF1 mice, survival T/C; T/C = 102 % of control

Record `Cc1ccc(NC(=O)Oc2cc(=O)oc3ccccc23)c([N+](=O)[O-])c1` ; system L1210 leukemia ip in BDF1 mice, survival T/C; T/C = 89 % of control

Record `O=C(CCl)Nc1c(Cl)cc(Cl)cc1Cl` ; system L1210 leukemia ip in BDF1 mice, survival T/C; T/C = 90 % of control

---

test system: L1210 leukemia ip in BDF1 mice, survival T/C; assay: NCI In Vivo Anticancer Drug Screen. Data for tumor model L1210 Leukemia (intraperitoneal) in B6D2F1 (BDF1) mice; conditions: endpoint: mean survival time; dose: 25.0 mg/kg/injection; schedule: Q04DX003 (ip); vehicle: saline; higher = longer survival
Inconclusive results and toxic doses are left out.
readout_kind: T/C

Some solved cases for reference:
compound: C#CCOCC1CNC(=O)O1 (stereo not given)
T/C: 103 % of control
//
compound: O=[N+]([O-])c1ccc(OCCC[P+](c2ccccc2)(c2ccccc2)c2ccccc2)c(Cl)c1
T/C: 90 % of control
//
compound: CCN(CC)CCOC(=O)c1ccc(N)cc1
T/C: 101 % of control
//
compound: CNNC(=O)c1cccnc1
T/C: 105 % of control
//
compound: COC(=O)/C(=C\c1ccc([N+](=O)[O-])s1)C(C)=O
T/C: 96 % of control

// field: T/C; key: `CN(C)CCN1c2ccccc2Sc2ccccc21` ; value = 108 % of control

// field: T/C; key: CCN1CCC(CCOC)(CN2c3ccccc3Sc3ccccc32)C1 (stereo not given) ; value = 97 % of control

The values you see were collected from PubChem BioAssay AID248.
